Assign Growth Rate to each entry below.
Tested on: HEK-293T
Experiment: Incucyte cell viability with HEK293T; note: unitless GR value; below 1 slowed growth and below 0 cell loss
Format: toxicity, cell-based
Conditions: human, 18 h, 10 µM, compound concentration 10 uM, replicate number 2
Numbers only.

Worked set:
Compound	Growth Rate
CCN(c1ccccc1)c1cc(NC)[n+](C)c(C)n1.[Cl-]	0.99
CN(CCCCCCC1=C(c2cc(F)cc(F)c2)CCCc2cc(O)ccc21)CCCCS(=O)(=O)CCCC(F)(F)F	-0.52
Cl.Cl.NC1(c2ccc(-c3nc4ccn5c(=O)[nH]nc5c4cc3-c3ccccc3)cc2)CCC1	-0.27

Can you give me Growth Rate for all of these, one by one?
1. CCN1C(=O)N(c2c(F)c(OC)cc(OC)c2F)Cc2cnc3[nH]c(CN4CCOCC4)cc3c21 [PEMIGATINIB]
2. Nc1n[nH]c2nc(-c3ccc(NS(=O)(=O)c4cccc(Cl)c4Cl)cc3)cnc12

## Result
0.33
0.84

Can you give me Growth Rate for all of these, one by one?
1. Oc1cccc(Nc2ccnc3[nH]c4ccccc4c23)c1
2. COc1cc(C(=O)NC2CCN(C)CC2)ccc1Nc1ncc2c(n1)N(C1CCCC1)CC(F)(F)C(=O)N2C
3. Cn1cc(-c2ccc(-c3cncc(Cl)c3N3CCC4(CCNC4=O)CC3)cc2)cn1

## Result
[-0.28, -0.2, 0.67]

Can you give me Growth Rate for all of these, one by one?
1. CC(C)Nc1ncnc2cc(OCc3cccc([S@@](C)(=N)=O)c3)c(Br)cc12
2. C[S+](C)[O-] [DIMETHYL SULFOXIDE]
3. COc1cnccc1Nc1nc(-c2nn(Cc3c(F)cc(OCCO)cc3F)c3ccccc23)ncc1OC

## Result
1. 0.81
2. 0.83
3. 0.13

Cited source: ChEMBL document CHEMBL5303304
